- target.under.test: Genome polyprotein (Dengue virus type 2 (strain 16681-PDK53)) (UniProt P29991)
- Sequence (P29991 whole entry, looked up): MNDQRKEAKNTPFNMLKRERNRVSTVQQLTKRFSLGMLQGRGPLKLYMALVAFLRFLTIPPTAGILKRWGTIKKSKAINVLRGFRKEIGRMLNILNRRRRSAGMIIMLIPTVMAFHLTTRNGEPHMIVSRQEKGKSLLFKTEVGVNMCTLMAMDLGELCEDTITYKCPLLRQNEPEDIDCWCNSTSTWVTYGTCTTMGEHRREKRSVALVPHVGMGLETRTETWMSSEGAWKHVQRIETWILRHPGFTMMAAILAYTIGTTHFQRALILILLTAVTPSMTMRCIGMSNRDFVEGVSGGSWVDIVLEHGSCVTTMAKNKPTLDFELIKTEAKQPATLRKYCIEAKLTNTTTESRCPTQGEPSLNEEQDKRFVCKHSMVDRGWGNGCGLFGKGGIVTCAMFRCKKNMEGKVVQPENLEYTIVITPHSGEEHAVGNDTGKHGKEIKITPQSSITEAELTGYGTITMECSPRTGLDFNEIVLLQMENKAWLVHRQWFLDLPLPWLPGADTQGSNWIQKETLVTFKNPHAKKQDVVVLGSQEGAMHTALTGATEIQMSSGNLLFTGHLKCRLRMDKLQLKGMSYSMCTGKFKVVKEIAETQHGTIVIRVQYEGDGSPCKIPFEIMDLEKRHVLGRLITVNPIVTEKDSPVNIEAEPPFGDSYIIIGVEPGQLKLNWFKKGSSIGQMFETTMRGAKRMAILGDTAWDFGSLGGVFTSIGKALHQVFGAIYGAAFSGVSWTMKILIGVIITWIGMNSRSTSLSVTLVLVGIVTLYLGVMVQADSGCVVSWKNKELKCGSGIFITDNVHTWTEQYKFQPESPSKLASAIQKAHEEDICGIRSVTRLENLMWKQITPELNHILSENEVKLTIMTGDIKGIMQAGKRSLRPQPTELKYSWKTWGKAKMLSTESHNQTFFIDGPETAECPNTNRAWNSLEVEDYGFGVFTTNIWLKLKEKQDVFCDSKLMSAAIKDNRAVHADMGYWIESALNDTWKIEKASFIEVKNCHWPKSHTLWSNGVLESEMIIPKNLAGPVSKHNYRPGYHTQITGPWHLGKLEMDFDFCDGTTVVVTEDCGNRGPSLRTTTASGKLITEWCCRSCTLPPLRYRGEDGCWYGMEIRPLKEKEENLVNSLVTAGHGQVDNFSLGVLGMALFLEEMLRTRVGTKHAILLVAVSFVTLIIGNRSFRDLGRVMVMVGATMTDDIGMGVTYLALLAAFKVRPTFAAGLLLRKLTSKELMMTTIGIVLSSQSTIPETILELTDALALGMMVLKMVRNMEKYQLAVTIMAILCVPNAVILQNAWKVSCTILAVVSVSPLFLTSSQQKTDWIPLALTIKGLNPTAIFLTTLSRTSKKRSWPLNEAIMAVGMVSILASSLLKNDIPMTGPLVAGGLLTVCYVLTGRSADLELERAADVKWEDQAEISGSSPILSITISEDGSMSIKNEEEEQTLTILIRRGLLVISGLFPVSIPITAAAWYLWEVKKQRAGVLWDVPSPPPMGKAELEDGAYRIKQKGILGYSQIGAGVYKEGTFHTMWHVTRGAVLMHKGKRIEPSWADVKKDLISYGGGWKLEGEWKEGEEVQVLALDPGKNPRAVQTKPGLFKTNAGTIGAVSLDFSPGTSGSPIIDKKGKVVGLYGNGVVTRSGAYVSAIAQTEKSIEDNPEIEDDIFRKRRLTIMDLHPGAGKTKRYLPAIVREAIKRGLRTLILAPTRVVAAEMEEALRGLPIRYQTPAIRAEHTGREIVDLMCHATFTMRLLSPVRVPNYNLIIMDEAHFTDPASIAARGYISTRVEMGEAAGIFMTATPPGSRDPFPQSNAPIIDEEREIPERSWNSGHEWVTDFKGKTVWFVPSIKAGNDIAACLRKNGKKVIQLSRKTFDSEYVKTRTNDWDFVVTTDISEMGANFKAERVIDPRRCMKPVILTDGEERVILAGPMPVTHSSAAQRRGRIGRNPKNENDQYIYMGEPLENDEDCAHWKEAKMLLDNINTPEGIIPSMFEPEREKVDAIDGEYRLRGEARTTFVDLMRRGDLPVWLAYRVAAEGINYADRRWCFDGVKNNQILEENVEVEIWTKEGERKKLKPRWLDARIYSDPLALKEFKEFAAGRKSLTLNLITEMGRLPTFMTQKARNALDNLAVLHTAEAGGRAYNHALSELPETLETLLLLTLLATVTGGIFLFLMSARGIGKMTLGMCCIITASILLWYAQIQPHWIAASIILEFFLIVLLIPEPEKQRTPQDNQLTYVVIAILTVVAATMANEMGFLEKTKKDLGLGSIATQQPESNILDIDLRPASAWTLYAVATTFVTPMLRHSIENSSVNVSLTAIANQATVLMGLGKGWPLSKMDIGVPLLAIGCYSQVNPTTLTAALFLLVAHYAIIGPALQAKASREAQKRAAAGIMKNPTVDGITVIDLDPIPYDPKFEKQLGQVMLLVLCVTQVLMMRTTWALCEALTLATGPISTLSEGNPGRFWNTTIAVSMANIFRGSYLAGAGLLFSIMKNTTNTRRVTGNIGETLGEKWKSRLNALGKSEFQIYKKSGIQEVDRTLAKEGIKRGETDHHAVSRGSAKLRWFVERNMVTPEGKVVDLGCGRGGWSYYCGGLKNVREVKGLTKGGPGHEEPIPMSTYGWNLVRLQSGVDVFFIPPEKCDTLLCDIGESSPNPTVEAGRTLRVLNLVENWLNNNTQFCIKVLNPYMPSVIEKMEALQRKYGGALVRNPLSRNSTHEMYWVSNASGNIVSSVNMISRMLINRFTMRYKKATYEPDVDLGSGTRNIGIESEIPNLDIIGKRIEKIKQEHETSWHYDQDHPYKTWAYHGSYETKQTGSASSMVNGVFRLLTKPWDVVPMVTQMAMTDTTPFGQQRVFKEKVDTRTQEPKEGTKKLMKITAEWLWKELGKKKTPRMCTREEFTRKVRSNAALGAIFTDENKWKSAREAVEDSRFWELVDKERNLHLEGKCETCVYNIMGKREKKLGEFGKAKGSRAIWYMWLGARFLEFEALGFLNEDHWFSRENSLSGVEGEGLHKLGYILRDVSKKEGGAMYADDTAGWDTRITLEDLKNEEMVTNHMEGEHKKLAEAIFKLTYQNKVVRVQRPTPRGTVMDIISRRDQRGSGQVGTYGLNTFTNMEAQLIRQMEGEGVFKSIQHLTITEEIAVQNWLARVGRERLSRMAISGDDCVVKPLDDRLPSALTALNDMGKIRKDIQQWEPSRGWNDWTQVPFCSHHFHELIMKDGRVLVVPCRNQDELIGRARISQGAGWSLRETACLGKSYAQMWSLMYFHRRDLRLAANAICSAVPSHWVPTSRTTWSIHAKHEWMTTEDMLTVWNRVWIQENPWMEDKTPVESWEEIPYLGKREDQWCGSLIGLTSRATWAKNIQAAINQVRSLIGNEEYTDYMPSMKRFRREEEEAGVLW
- measurement.notes: flavivirus cap methylation enzyme inhibition – biochemical, confirmation dose response, primary screen (AID 588689)
- measurement.context: Dengue-2 NS5 methyltransferase capping enzyme assay, at 25 µM, hits give high values
The campaign covered roughly 340,000 compounds. About 1,000 (0.29%) were called active. The list is a sample of the results. Entries with a potency or affinity are not part of this list.
measurement.kind: inhibition (%)
Write the number in % without appending the unit.

COc1ccccc1/C=c1\sc2nc(-c3ccco3)nn2c1=O = 20.1

// inhibition lookup, key: "COc1ccc(-c2c(C#Cc3ccc(N(C)C)cc3)c3ccccc3n2C)cc1"
6.35

Please give the result for "CC(C)OC(=O)N(C)C[C@H]1OCc2cnnn2CCCC(=O)N([C@H](C)CO)C[C@H]1C" too.
-3.41

Next compound: "CCOC(=O)c1c(NC(=O)/C=C\C(=O)O)sc(C)c1-c1ccccc1"
-5.1

Also check CC1=NN(C(N)=S)C(=O)C1N=Nc1ccc(Br)cc1 (configuration not stated)
7.71

Same question, "CCc1ccc(S(=O)(=O)Nc2ccc(O)c3ccccc23)cc1" this time
36.9

---

inhibition: recorded values
- target.under.test: Genome polyprotein (Dengue virus type 2 (strain 16681-PDK53)) (UniProt P29991)
- measurement.notes: flavivirus cap methylation enzyme inhibition – biochemical, confirmation dose response, primary screen (AID 588689)
- measurement.context: Dengue-2 NS5 methyltransferase capping enzyme assay, at 25 µM, hits give high values
The campaign covered roughly 340,000 compounds. About 1,000 (0.29%) were called active. The list is a sample of the results. Potency and affinity values are given separately.
State the answer as a number, implicitly in %.

# example entries with known answers
COc1cc(C(=O)O)c2c(c1C)OC(=O)c1c(C)cc(O)c(C=O)c1O2 = 0.72
COc1ccc(C(=O)N2CCOC2CNC(=O)C(=O)NCc2ccc(C)cc2)cc1 (centres undefined) = 1.73
Cc1[nH]c2ccccc2c1-c1nc2ccccc2[nH]1 = -3.22
COCCn1c(C)cc(C(=O)CSc2n[nH]c(N)n2)c1C = -0.41

Okay, next one:
Quick one: inhibition for "Nc1ccc(Nc2ccccc2)c(S(=O)(=O)O)c1" ?
54.5

---

- target.under.test: Genome polyprotein (Dengue virus type 2 (strain 16681-PDK53))
- measurement.notes: flavivirus cap methylation enzyme inhibition – biochemical, confirmation dose response, primary screen (AID 588689)
- measurement.context: Dengue-2 NS5 methyltransferase capping enzyme assay, at 25 µM, hits give high values
Out of some 340,000 compounds screened, about 1,000 (0.29%) were called active. The list is a sample of the results. Measured potencies and affinities stand elsewhere.
measurement.kind: inhibition

Known inhibition results, listed for orientation:
COc1cc(-c2nc3ccccn3c2/N=C/c2ccc(F)cc2)ccc1O = -1.47% (inactive)
Cc1cccn2cc(CCNC(=O)c3ccc(Br)o3)nc12 = 3.48% (inactive)
CN1C(=O)C(C)(C)c2cc(S(=O)(=O)NCc3ccc(Cl)cc3)ccc21 = 0% (inactive)
CCOc1ccccc1CN1CCNC(=O)C1CC(=O)NC1CCCCCC1 (stereo not given) = 7.85% (inactive)

Attention now turns to another entry.
Which measured inhibition belongs to CCOC(=O)C1(CC2CCCCO2)CCN(Cc2c(C)cc(C)cc2-n2cccn2)CC1 (stereo not given) , tested on Genome polyprotein (Dengue virus type 2 (strain 16681-PDK53))?
-10.8% (inactive)
